test system: KM12 colon; assay: NCI tumour cell line growth inhibition, 48 h
# TGI >= 30 µM gives y, anything below gives n

A selection of reference data follows.
Compound	Label
C#CC1(O)CCCCCCCCC2(CCCCCCCC1)OCCO2	y
c1ccc2c(c1)OC(N1CCCC1)c1cnc(N3CCOCC3)nc1-2 (centres undefined)	y
COC(=O)c1cc2ccccc2c2c3c(ccc12)OCO3	y

Now look at this one.
Given the entry Cc1ccc(-c2nc3nc(-c4ccccc4)nc(N4CCNCC4)c3o2)cc1 , answer whether its TGI meets or surpasses 30 µM.
n

----------
system: SN12C renal; experiment: NCI tumour cell line growth inhibition, 48 h
Test readout: TGI

Molecule	Result
O=C1C(SCCO)=C(SCCO)C(=O)N1c1ccc(-c2ccccc2)cc1	19.6 µM
C[C@]12CC[C@@H]3c4ccc(O)cc4CC[C@H]3[C@@H]1Cc1cnc(N)nc12	44.2 µM
CC(=O)OC(C)(C)CCC(=O)[C@](C)(O)[C@H]1[C@H](O)C[C@@]2(C)[C@@H]3CCc4c(cc(OC5OC(CO)C(O)C(O)C5O)c(O)c4C)C3(C)C(=O)C[C@]12C (some centres undefined)	> 100 µM
CC1=C(C(=O)N[C@@H](CC(C)C)C(=O)O)N2C(=O)[C@@H](NC(=O)C(N)c3ccccc3)[C@H]2SC1 (some centres undefined)	> 100 µM
Nc1c(C(=O)c2cccc(-c3cccnc3)c2)cnn1-c1ccc(F)cc1F	> 25 µM
CCOC(=O)c1cc2c(n1Cc1cc(OC)c(OC)c(OC)c1)-c1oncc1CCC2	> 40.1 µM
COc1ccc(C2=C(c3ccc(OC)c(OC)c3)C(=O)N3CCCC3C2)cc1 (centres undefined)	> 100 µM
COC(=O)C1=C(C)NC(C)=C(C(=O)OCC(C)C)C1c1ccccc1[N+](=O)[O-] (centres undefined)	19.8 µM

Respectfully, I request TGI for each entry included below.
1. Cc1ccc(C(=O)NC2CCC2)cc1-c1ccc(C(=O)NCC2CC2)cc1
2. Cc1nc2sccn2c1/C=C1/C(=O)Nc2cccc(Cl)c21

1. > 25 µM
2. > 100 µM

----------
tested on: MOLT-4 leukemia; test: NCI tumour cell line growth inhibition, 48 h
Test readout: GI50

COc1ccc(/C=C(\C(=O)NCc2cccnc2)S(=O)(=O)c2ccccc2)cc1OC 3.35 µM

Working through the 2 molecules below one at a time, give GI50 for each.
1. COc1ccc(CC(=O)c2ccc(O)cc2O)cc1
2. Cc1cn2c(/C=C3/C(=O)Nc4ccc(O)cc43)c(C)nc2s1

1: 57.4 µM; 2: 4.46 µM

Record GI50 for all entries; do not skip any.
1. O=S(=O)(c1cccc2c(I)cccc12)N1CCCNCC1
2. Nc1c(C(=O)c2cccc(C#CCO)c2)cnn1-c1ccc(F)cc1
3. N#Cc1nc2c(S(=O)(=O)c3ccc(Cl)cc3)c(N)n(CCCN3CCOCC3)c2nc1C#N

["10.9 µM", "> 25 µM", "2.63 µM"]

----------
I'd appreciate it if you could supply TGI values for the items below.
system: KM20L2 colon; test: NCI tumour cell line growth inhibition, 48 h

Compound	Result
CC1=CC2c3cccc4[nH]cc(c34)CC2N(C)C1 (stereo not given)	> 100 µM

For the 8 compounds below, give their TGI values.
1. O=C1C(c2cnc3ccccc3n2)=C(O)c2ccccc21
2. COc1cccc(NC(=O)CC(=O)N2N=C(n3ccc4ccccc43)CC2c2ccccc2)c1 (stereo not given)
3. N#CNC(=NCCc1c[nH]c2ccccc12)Oc1ccccc1
4. CC(=O)[CH-]C(=O)c1ccccc1.CC(=O)[CH-]C(=O)c1ccccc1.CC(=O)[CH-]C(=O)c1ccccc1.[In+3]
5. Cc1ccc2c(=O)c3ccccc3sc2c1
6. CCOC(=O)/C(O)=C(/C(=O)OC)c1ccc(Cl)cc1
7. COC(=O)C(CC1=C(O)Nc2ccccc2N1)/C(=N/NC(N)=O)C(=O)Nc1ccccc1C (stereo not given)
8. CCCCCCCCC/C=C1\CCC(CN(C)C)C1=O (stereo not given)

["> 100 µM", "> 100 µM", "49.8 µM", "> 100 µM", "> 100 µM", "> 100 µM", "> 100 µM", "4.66 µM"]

Query the reported TGI for KM20L2 colon; item: O=C1c2ccccc2N2Oc3ccccc3C12c1ccccc1 (stereo not given)
> 100 µM
